Molecular target: XIAP-BIR3 (Homo sapiens (Human))
Sequence (P98170 241-356): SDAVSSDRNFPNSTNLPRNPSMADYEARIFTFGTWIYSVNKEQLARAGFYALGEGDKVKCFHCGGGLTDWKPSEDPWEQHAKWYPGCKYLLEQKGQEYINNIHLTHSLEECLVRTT
Experiment: BIR binding assay (FRET competition), XIAP BIR3
Quantity measured: IC50

[[record]]
compound = "COC(=O)c1cc(F)ccc1Cc1cnc2c(c1)N(C(=O)CN1C[C@@H](C)NC[C@@H]1CN1CCO[C@H](COc3cccc(OC[C@@H]4CN(C[C@H]5CN[C@H](C)CN5CC(=O)N5CC(C)(C)c6ncc(Cc7ccc(F)cc7C(=O)OC)cc65)CCO4)c3)C1)CC2(C)C [Compound 152]"
quantity_measured = "IC50"
result = "0.0316 to 0.501 µM"

[[record]]
compound = "C[C@@H]1CN(CC(=O)N2CC(C)(C)c3[nH]c(=O)c(Cc4ccc(F)cc4)cc32)[C@@H](CN2CCO[C@H](C(=O)NCCN3CCN(C(=O)[C@@H]4CN(C[C@H]5CN[C@H](C)CN5CC(=O)N5CC(C)(C)c6[nH]c(=O)c(Cc7ccc(F)cc7)cc65)CCO4)CC3)C2)CN1 [Compound 134]"
quantity_measured = "IC50"
result = "0.0316 to 0.501 µM"

[[record]]
compound = "C[C@@H]1CN(CC(=O)N2CC(C)(C)c3c2cc(Cc2ccc(F)cc2)c(=O)n3C)[C@@H](CN2CCO[C@H](COc3ccc(Cc4ccc(OC[C@@H]5CN(C[C@H]6CN[C@H](C)CN6CC(=O)N6CC(C)(C)c7c6cc(Cc6ccc(F)cc6)c(=O)n7C)CCO5)cc4)cc3)C2)CN1 [Example 115]"
quantity_measured = "IC50"
result = "0.0316 to 0.501 µM"

[[record]]
compound = "C[C@@H]1CN(CC(=O)N2CC(C)(C)c3[nH]c(=O)c(Cc4ccc(F)cc4)cc32)[C@@H](CN2CCO[C@H](C(=O)Nc3cccc(NC(=O)[C@@H]4CN(C[C@H]5CN[C@H](C)CN5CC(=O)N5CC(C)(C)c6[nH]c(=O)c(Cc7ccc(F)cc7)cc65)CCO4)c3)C2)CN1 [Compound 140]"
quantity_measured = "IC50"
result = "0.0158 to 0.0316 µM"


###

Quick list: pIC50 per entry.
Biological target: cIAP2-BIR3 (Homo sapiens (Human), UniProt Q13489)
Sequence (Q13489 238-349): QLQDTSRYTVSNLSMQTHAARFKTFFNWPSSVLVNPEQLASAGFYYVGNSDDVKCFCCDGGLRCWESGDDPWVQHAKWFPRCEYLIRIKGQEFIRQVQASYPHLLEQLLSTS
Assay: BIR binding assay (FRET competition), cIAP2 BIR3
pIC50: −log10 of the molar value.
Quantity measured: pIC50

[[record]]
compound = "C[C@@H]1CN(CC(=O)N2CC(C)(C)c3[nH]c(=O)c(Cc4ccc(F)cc4)cc32)[C@@H](CN2CCO[C@H](COc3ccc(C(C)(C)c4cccc(C(C)(C)c5ccc(OC[C@@H]6CN(C[C@H]7CN[C@H](C)CN7CC(=O)N7CC(C)(C)c8[nH]c(=O)c(Cc9ccc(F)cc9)cc87)CCO6)cc5)c4)cc3)C2)CN1 (stereo in doubt) [Example 61]"
result = "6.30 to 7.50"

[[record]]
compound = "C[C@@H]1CN(CC(=O)N2CC(C)(C)c3[nH]c(=O)c(Cc4ccc(Cl)cc4O)cc32)[C@@H](CN2CCO[C@H](C(=O)NCc3ccc(CNC(=O)[C@@H]4CN(C[C@H]5CN[C@H](C)CN5CC(=O)N5CC(C)(C)c6[nH]c(=O)c(Cc7ccc(Cl)cc7O)cc65)CCO4)cc3)C2)CN1 [Compound 164]"
result = "8.10 to 8.86"

[[record]]
compound = "C[C@@H]1CN(CC(=O)N2CC(C)(C)c3[nH]c(=O)c(Cc4ccc(F)cc4)cc32)[C@@H](CN2CCC(COc3cccc(OCC4CCN(C[C@H]5CN[C@H](C)CN5CC(=O)N5CC(C)(C)c6[nH]c(=O)c(Cc7ccc(F)cc7)cc65)CC4)c3)CC2)CN1 [Example 107]"
result = "8.10 to 8.86"

